The values you see were collected from patent US20180099931A1.

TARGET_UNDER_TEST: F508delCFTR (Homo sapiens, UniProt P13569, DEL508-508)
Construct: expressed in transfected cells; host or cells: CFBE41o- human lung-derived epithelial cells (CFBE4lo-F508delCFTR-HRP), doxycycline-inducible
Sequence (P13569 with tags, fused parts or gaps DEL508-508): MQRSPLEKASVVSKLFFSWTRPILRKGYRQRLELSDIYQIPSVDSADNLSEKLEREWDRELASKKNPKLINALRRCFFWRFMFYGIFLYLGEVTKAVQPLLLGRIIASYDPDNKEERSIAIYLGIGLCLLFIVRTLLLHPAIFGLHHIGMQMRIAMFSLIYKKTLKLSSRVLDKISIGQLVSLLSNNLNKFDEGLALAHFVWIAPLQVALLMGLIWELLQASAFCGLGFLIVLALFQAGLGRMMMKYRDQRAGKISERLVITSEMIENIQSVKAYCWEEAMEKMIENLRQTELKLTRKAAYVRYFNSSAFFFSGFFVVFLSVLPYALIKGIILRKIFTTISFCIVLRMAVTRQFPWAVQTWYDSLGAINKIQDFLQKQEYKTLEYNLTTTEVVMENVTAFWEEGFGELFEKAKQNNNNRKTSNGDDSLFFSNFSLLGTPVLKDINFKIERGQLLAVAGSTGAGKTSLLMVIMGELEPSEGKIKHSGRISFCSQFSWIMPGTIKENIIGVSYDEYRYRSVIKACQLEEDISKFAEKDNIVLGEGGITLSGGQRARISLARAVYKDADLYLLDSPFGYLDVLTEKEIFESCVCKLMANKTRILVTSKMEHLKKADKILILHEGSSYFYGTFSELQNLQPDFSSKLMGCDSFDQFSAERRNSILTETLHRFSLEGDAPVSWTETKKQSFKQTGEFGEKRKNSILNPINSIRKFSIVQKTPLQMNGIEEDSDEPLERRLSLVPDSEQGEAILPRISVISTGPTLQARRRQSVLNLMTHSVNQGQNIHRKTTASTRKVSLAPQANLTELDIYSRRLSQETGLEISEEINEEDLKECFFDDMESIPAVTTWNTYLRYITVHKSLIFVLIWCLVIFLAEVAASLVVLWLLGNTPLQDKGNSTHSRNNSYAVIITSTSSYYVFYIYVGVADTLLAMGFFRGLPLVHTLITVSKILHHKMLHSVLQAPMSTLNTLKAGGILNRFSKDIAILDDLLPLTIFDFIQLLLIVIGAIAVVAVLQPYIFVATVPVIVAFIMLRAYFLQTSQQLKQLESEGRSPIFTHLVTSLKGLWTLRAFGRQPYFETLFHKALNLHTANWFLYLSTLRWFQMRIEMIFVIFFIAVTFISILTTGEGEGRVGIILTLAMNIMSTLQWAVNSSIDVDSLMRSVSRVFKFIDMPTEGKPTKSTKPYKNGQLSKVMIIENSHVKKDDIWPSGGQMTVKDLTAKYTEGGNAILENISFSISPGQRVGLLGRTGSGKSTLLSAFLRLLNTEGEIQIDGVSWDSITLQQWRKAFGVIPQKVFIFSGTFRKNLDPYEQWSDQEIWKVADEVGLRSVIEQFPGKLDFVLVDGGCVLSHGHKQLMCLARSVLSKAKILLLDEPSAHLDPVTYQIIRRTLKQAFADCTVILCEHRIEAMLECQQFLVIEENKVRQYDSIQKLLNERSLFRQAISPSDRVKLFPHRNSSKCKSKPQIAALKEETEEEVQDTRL
TEST_DETAILS: Cell Surface Expression-Horse Radish Peroxidase (CSE-HRP) Assay
Type: cell-based
CONDITION_PARAMETERS: CSE-HRP; with co-corrector (2 μM of 3-[(2R,4R)-4-({[1-(2,2-difluoro-1,3-benzodioxol-5-yl)cyclopropyl]carbonyl}amino)-7-methoxy-3,4-dihydro-2H-chromen-2-yl]benzoic acid); read-out: EC50 (with co-corrector)
pEC50: −log10 of the molar value.
QUANTITY_MEASURED: pEC50

Task item: # lookup: pEC50 of "COc1cc(CN[C@H]2[C@H](C(C)(C)C)[C@@H](C(=O)O)N(C(=O)C3CCCCC3)[C@H]2c2ccccc2)ccc1F"
Reply: 5.00 to 6.00

Task item: Okay, and "COc1ccc(C(C)(C)C)cc1CN[C@H]1[C@H](C(C)(C)C)[C@@H](C(=O)O)N(C(=O)c2cc(-c3ccccc3)nn2C)[C@H]1c1ccccc1" ?
Reply: > 6.00

Task item: // same read-out, input: COc1ccc(C(C)(C)C)cc1CN[C@H]1[C@H](C(C)(C)C)[C@@H](C(=O)O)N(C(=O)C2CC2c2ccc(F)cc2)[C@H]1c1ccccc1 (stereo partly drawn)
Reply: > 6.00

Task item: What would you report for COc1ccc(C(C)(C)C)cc1CN[C@H]1[C@H](C(C)(C)C)[C@@H](C(=O)O)N(C(=O)[C@H]2OCC[C@H]2C)[C@H]1c1ccccc1 (relative stereo) ?
Reply: 5.00 to 6.00

Task item: Likewise for COc1ncc(F)cc1CN[C@@H]1[C@@H](C(C)(C)C)[C@H](C(=O)O)N(C(=O)C2CCCCC2)[C@@H]1c1ccccc1 (racemic) ?
Reply: 5.00 to 6.00

Task item: Now consider COc1ccc(Cl)cc1CN[C@@H]1[C@@H](C2CC2)[C@H](C(=O)O)N(C(=O)C2CCCCC2)[C@@H]1c1ccccc1 (racemic) .
Reply: 5.00 to 6.00
